system: SF-539 CNS; assay: NCI-60 one-dose screen, 48 h; details: 10 µM unless noted
The panel holds about 83,000 compounds, 20% with a hit somewhere; the sample as a whole holds those more often. Active and inactive are the calls of the source. How the source made its calls: active means growth percent below 10; inactive means the rest.
Allowed answers: Yes = active, No = inactive

Prompt: Write down the call the test reported for this compound. Item: `C=CCc1c2c(c(OC)c3ccoc13)C(=O)/C(=C/c1ccccc1OC)O2`
Response: No

Prompt: Status in this test for `O=C(O)c1[nH]c(=O)[nH]c(=O)c1[N+](=O)[O-]` ?
Response: No

Prompt: Recorded test outcome, item `O=S(=O)(NCCNc1cc(-c2c(-c3cccc(O)c3)nc3sccn23)ccn1)c1ccc(C(F)(F)F)cc1`
Response: No

Prompt: How was `C=CCc1c(O)c(C(=O)/C=C/c2ccc(Cl)cc2)c(OC)c2ccoc12` classified in this test?
Response: No

Prompt: Answer briefly: the call reported for `C#CCOc1cccc(Nc2ncnc3c(NC(=O)C=C)cccc23)c1` in this assay.
Response: Yes

Prompt: # fetch the recorded call for `COc1ccc(-c2nc(/C=C3\SC(=NCc4ccccc4)NC3=O)c3ccccn23)cc1` here
Response: Yes

Prompt: Tell me the recorded outcome of this test for CC12CCC3c4ccccc4CCC3(CO1)C2 (stereo not given) .
Response: No

Prompt: Kindly provide the recorded test outcome for the following compound: `O=CC1(C2(C=O)c3ccccc3-c3ccccc32)c2ccccc2-c2ccccc21`
Response: Yes

Prompt: Please let me know the test result on file for `N=C(N)c1ccc(-c2ccc(-c3cc(Cl)cc(Cl)c3)o2)o1` .
Response: Yes

Prompt: Record lookup: outcome of this test for `CCOc1ccc(NC(=O)CSc2oc(-c3ccccc3)nc2S(=O)(=O)c2ccc(F)cc2)cc1` ?
Response: Yes

----------
tested on: ACHN renal; test: NCI-60 one-dose screen, 48 h; conditions: 10 µM unless noted
This is part of a sample that, as a whole, favours compounds with a hit. Of some 83,000 tested, about 20% had one in any assay. The source made the active and inactive calls. The calls were made as follows: active = growth percent below 10; inactive = the rest.
Valid outcomes are listed here; reply with one: active, inactive

Prompt: Just curious, what result did `OCc1cccc(-c2ccc3ncc(-c4nc(NC5CC5)ncc4F)n3c2)c1` get here?
Response: active

Prompt: Please indicate how the test categorized `Cc1nc2sc(C(=O)Nc3ccccc3)c(N)c2cc1C(=O)c1ccccc1` .
Response: inactive

Prompt: Look up the recorded call for `CC(C)(C)n1cc(-c2ccnc(NCCNS(=O)(=O)c3cccc4ccccc34)c2)c(-c2cccc(F)c2)n1` in this test.
Response: active

Prompt: State the result this test recorded for `CC(C)(C)c1cc(-c2nc3ccc(N4CCN(S(C)(=O)=O)CC4)cc3[nH]2)cc(C(C)(C)C)c1O` .
Response: inactive

Prompt: # fetch the recorded call for CCCCCCC1(C)NCCO1 (stereo not given) here
Response: inactive

----------
test system: COLO 205 colon; assay: NCI-60 one-dose screen, 48 h (100 = growth as untreated, 0 = no growth, -100 = all killed); conditions: 10 µM unless noted
The panel holds about 83,000 compounds, 20% with a hit somewhere; the sample as a whole holds those more often.
measure.name: growth (%)
Quick reminder: number only, in %, skip the unit.

Summary for this molecule, `CS(=O)(=O)C1=CN(CCO)C(=O)N2CCCN=C12` : growth is 97.8

# growth of `COC(=O)c1c2c(c(C)[n+]([O-])c1C)C(=O)C(NCc1ccc(Cl)cc1)=CC2=O` = 9.79

The recorded growth for entry `Cc1ccc(CNc2ccc(Cl)cc2NCc2ccc(C)c(O)c2)cc1O` equals 90.2

growth for `Cc1ccccc1NC(=O)c1sc2nc(C)c(C(=O)/C=C/c3ccccc3)cc2c1N` is 64.1

Please fill in: growth reported for `CC[C@]12C=CCN3CC[C@@]4(c5cc(NC(=O)CCC(=O)OCc6cn(Cc7ccc(F)cc7)nn6)c(OC)cc5N(C)[C@H]4[C@@](O)(C(=O)OC)[C@@H]1OC(C)=O)[C@@H]32` = 107

Sample COC1C[C@H](O[C@@H]2C[C@H](O[C@@H]3C[C@H](O[C@@H]4C(=O)c5c(cc6cc(O[C@H]7C[C@@H](O[C@H]8C[C@@H](O)[C@H](O)C(C)O8)[C@H](O)C(C)O7)c(C)c(O)c6c5O)C[C@H]4C(OC)C(=O)[C@@H](O)[C@@H](C)O)OC(C)[C@H]3O)OC(C)[C@@H]2O)OC(C)[C@@H]1O (some centres not stated) ; growth observed: -78.3

Record `O=C1N[C@@H]2NC(=[N+]3CCOCC3)N[C@@H]2N1` . Reported growth: 115

----------
Test system: NCI-H460 lung
Experiment: NCI-60 one-dose screen, 48 h
Conditions: 10 µM unless noted
Protocol: Growth inhibition of the NCI-H460 human Non-Small Cell Lung tumor cell line is measured as a screen for anti-cancer activity. Cells are grown in 96 well plates and exposed to the test compound for 48 hours. Compounds are tested at a single concentration, which is 10^-5 M for most compounds. The reported endpoint is percent growth (GI% or GIPRCNT), where numbers from 0 - 100% represent growth inhibition, and numbers from -100% - 0 represent cell death. […]
This is part of a sample that, as a whole, favours compounds with a hit. Of some 83,000 tested, about 20% had one in any assay. The source made the active and inactive calls. The calls were made as follows: active = growth percent below 10; inactive = the rest.
Pick from active, inactive when you respond.

Prompt: What outcome does the record of this test show for `C#COc1cccc(Nc2ncnc3ncc(NC(=O)CCl)cc23)c1` ?
Response: active

Prompt: # lookup: test call for `CCCCN[C@H]1CC[C@@]2(C)[C@@H](CC[C@@]3(C)[C@H]2[C@H](O)C[C@H]2/C(=C(\CCC=C(C)C)C(=O)OC)[C@@H](OC(C)=O)C[C@@]23C)[C@@H]1C`
Response: inactive

Prompt: Check the results log: what was the call for `COc1cc(CNC(=O)CCCC/C=C/C(C)C)ccc1OCc1nnc(Nc2ccc([N+](=O)[O-])cc2)o1` ?
Response: inactive

Prompt: Hi, sorry to bother you, what did the test record for `CN1CCN(c2ccc(NC(=O)c3cncnc3Nc3ccc(OCc4ccccn4)c(Cl)c3)cc2)CC1` ?
Response: inactive

Prompt: Recorded call for `C=CCc1c2c(c(OC)c3ccoc13)C(=O)/C(=C/c1ccccc1OC)O2` ?
Response: inactive

Prompt: Just curious, what result did `COc1ccc(/C(C)=C(/c2ccc(OCCCN(C)C)cc2)c2ccc(OC(=O)Cc3ccccc3)cc2)cc1` get here?
Response: inactive

Prompt: Call for entry `C/C(=C(/c1ccc(Cl)cc1)c1ccc(OCCN2CCCC2)cc1)c1ccc(Cl)cc1` :
Response: inactive

Prompt: Would you mind telling me which call this test gave `N#Cc1c(-c2ccccc2)cc(-c2ccccc2)n(CCCCCC(=O)Nc2ccccc2N)c1=O` ?
Response: inactive

Prompt: Hi, sorry to bother you, what did the test record for `O=C1c2c(c3c4ccc(Br)cc4oc3c3[nH]c4ccccc4c23)C(=O)N1O` ?
Response: inactive

----------
tested on: SK-OV-3 ovarian; test: NCI-60 one-dose screen, 48 h (100 = growth as untreated, 0 = no growth, -100 = all killed); settings: 10 µM unless noted
This is part of a sample that, as a whole, favours compounds with a hit. Of some 83,000 tested, about 20% had one in any assay.
measure.name: growth (%)
Field format: number, assumed %, no unit text.

Reported growth for `COC(=O)c1c2c(c(C)[n+]([O-])c1C)C(=O)C=C(NCc1ccc(OC)cc1)C2=O` was 8.27

Sample `Oc1c(Cl)cc(Cl)c2ccc(Cn3cc(-c4cc(F)cc(F)c4)nn3)nc12` ; growth observed: 108

The molecule listed as `O=C(CSc1nc2sc3c(c2c(=O)n1-c1ccccc1)CCCCC3)N/N=C/c1ccc(F)cc1` has a reported growth of 73.4

For record `CCOP(=O)(OCC)c1nc(-c2ccccc2)oc1NCc1cccnc1` the listed growth is 106

Kindly note the recorded growth for `COP(=O)(OC)C(C)(C)CC(=O)CC(C#N)(C#N)C(C#N)C#N` , which is 101

Input COc1cc(N2C(=O)[C@H](O)C2c2ccc(SC)cc2)cc(OC)c1OC (some centres undefined) . Output growth: 3.02

response.value for `O=C(/C=C/c1cccs1)c1ccc(Cl)nc1` (field: growth) = 95.7

The molecule listed as `O=C1c2cccnc2C(=O)c2c1c(C(=O)NCCCN1CCCCC1)c1ccccn21` shows growth equal to -15.7

# growth of `COc1ccccc1NC(=O)Cn1cc(CN2CCN(c3ccnc4cc(Cl)ccc34)CC2)nn1` = 86.6

The recorded growth for `Cc1ccc(-c2nc(/C=C3/C(=O)Nc4ccccc43)c3ccccn23)cc1` is 92.6

// recorded growth for `Cc1cc(Cl)ccc1NC(=O)c1cc2ccccc2cc1O` : 36.7

The reported growth of the molecule `S=C(Nc1ccc(-c2nc(N3CCOCC3)c3cccn3n2)cc1)Nc1cccnc1` was 21.5

Input `Cc1ccc(-c2nc(N3CCNCC3)c3oc(-c4ccccc4)nc3n2)cc1` . Output growth: 87.4

Entry under test: `C=C(C)[C@@H]1CC[C@]2(C(=O)O)CC[C@]3(C)[C@H](CC[C@@H]4[C@@]5(C)C[C@@H](Cc6cn(CCO[C@@H]7O[C@H](COC(C)=O)[C@H](OC(C)=O)[C@H](OC(C)=O)[C@H]7OC(C)=O)nn6)[C@H](O)C(C)(C)[C@@H]5CC[C@]43C)[C@@H]12` . Its growth was 80.8

// growth value for `CCCCCCCCCCCCCCCCCCOc1ccccc1CC(=O)OCC[N+]1(C)CCCC1` : 94.1

// field: growth; key: `CCNc1nc(-c2ccc(Cl)c(OC)c2)c(-c2ccnc(NCCCNS(=O)(=O)c3ccc(Cl)cc3)n2)s1` ; value = 42.1

Quick note, growth for `CCCCC(=O)Nc1ncc(Cc2ccc(Cl)cc2)s1` landed at 79.1

Record `O=C(Cc1ccccc1)Nc1nc(O)c(/C=C2\C(=O)C=Cc3ccccc32)s1` . Reported growth: 83

Query `C[C@H](NC(=O)[C@@H](C)N)[C@H](Oc1ccc2c(cnn2-c2ccc(F)cc2)c1)c1ccc2c(c1)OCCO2` yields growth of 49.2
